System: DOHH2 cells
test-method-notes: Cell proliferation inhibition in vitro, DOHH2 cells by CTG assay
Format: cell-based
test-conditions: Homo sapiens, DOHH-2, 72 hours, read-out: Inhibitions of cell activities IC50 (nM) DOHH2
Hi there, I'd appreciate the recorded IC50 for every entry that follows.
Answers are plain numbers, in nM.

Example results:
- compound: "CC#CC(=O)N1CC2(CC2)C[C@H]1c1nc(-c2ccc(C(C)(O)c3ccccc3)cc2)c2c(N)nccn12 (stereo partly shown)"
  unit-annotation: "nM"
  IC50: 124
- compound: "C=CC(=O)N1CC2(CC2)C[C@H]1c1nc(-c2cccc(C(=O)Nc3ccccn3)c2)c2c(N)nccn12"
  unit-annotation: "nM"
  IC50: 629
- compound: "C=CC(=O)N1C(c2nc(-c3ccc(C(=O)Nc4cc(Cl)ccn4)cc3)c3c(N)nccn23)CC2CC21 (stereo not shown)"
  unit-annotation: "nM"
  IC50: 84
- compound: "C=CC(=O)N1C2C[C@@H](C1c1nc(-c3ccc(C(=O)Nc4cc(C(F)(F)F)ccn4)cc3)c3c(N)nccn13)N(C)C2 (stereo partly shown)"
  unit-annotation: "nM"
  IC50: 143
- compound: "C=CC(=O)N1[C@@H]2CC[C@@H](C2)[C@H]1c1nc(-c2ccc(C(=O)Nc3ccccn3)cc2)c2c(N)nccn12"
  unit-annotation: "nM"
  IC50: 182

In the following, a different compound is considered.
Query: Recall and state the measured IC50 for C=CC(=O)N1C2C[C@@H](C1c1nc(-c3ccc(C(=O)Nc4ccccn4)cc3)c3c(N)nccn13)N(C(C)=O)C2 (stereo partly shown) .
Reply: 177

====

Hi there, I'd appreciate the recorded Tmax for every entry that follows.
test-method-notes: Pharmacokinetic test in SD rats (oral 10 mg/kg, intravenous 1 mg/kg)
Assay type: in vivo
test-conditions: male, plasma; SD rat, oral 10 mg/kg
Method: SD rat, male (purchased from Shanghai Sippr-Bk Laboratory Animal Co., Ltd.), each tested compound was administered at a single dose to SD rats by oral administration (10 mg/kg, 3 rats in each group) and intravenous administration (1 mg/kg, 3 rats in each group) for the pharmacokinetic study. […] 200 μL of supernatant was taken and added to a 96-well sample plate and the samples were analyzed by LC-MS/MS.
Give bare numbers, in min.

- compound: "C=CC(=O)N1CCC[C@@H](n2nc(-c3ccc(Oc4ccccc4)cc3)c3c(N)ncnc32)C1 [Ibrutinib, reference compound]"
  test-readout: "Tmax"
  quantitative-readout: 19.8
- compound: "C=CC(=O)N1CC2CCCC2C1c1nc(-c2ccc(C(=O)Nc3ccccn3)cc2)c2c(N)nccn12 (stereo not drawn)"
  test-readout: "Tmax"
  quantitative-readout: 16.2
- compound: "C=CC(=O)N1C[C@H]2[C@@H]([C@H]1c1nc(-c3ccc(C(=O)Nc4ccccn4)cc3)c3c(N)nccn13)C2(C)C"
  test-readout: "Tmax"
  quantitative-readout: 6
- compound: "CC#CC(=O)N1C2CC[C@@H](C2)C1c1nc(-c2ccc(C(=O)Nc3cc(C(F)(F)F)ccn3)cc2)c2c(N)nccn12 (stereo partly drawn)"
  test-readout: "Tmax"
  quantitative-readout: 15
- compound: "CC#CC(=O)N1CCC[C@H]1c1nc(-c2ccc(C(=O)Nc3ccccn3)cc2)c2c(N)nccn12 [ACP-196, reference compound]"
  test-readout: "Tmax"
  quantitative-readout: 4.8

In the following, a different compound is considered.
Query: Recall and state the measured Tmax for C=CC(=O)N1CC2CCCC2C1c1nc(-c2ccc(Oc3ccccc3)cc2)c2c(N)nccn12 (stereo not drawn) .
Reply: 21.6
